Kindly state tissue uptake at 1 min for each of the entries shown.
Assay: Biodistribution of 99mTc complexes in rats
Assay type: in vivo, Australian Albino Wistar Rats
Details: rat, skin, rats, 1 min, read-out: biodistribution skin
Reply with just the number (in %ID/g).

In: Query (molecule): Nc1ccc(O)c(NC(=O)CN(CCN(CC(=O)O)CC(=O)Nc2cc(N)ccc2O)CC(=O)O)c1 [Compound 5] ; field requested: tissue uptake at 1 min
Out: 0.38

In: Query (molecule): O=C(O)CN(CCN(CC(=O)O)CC(=O)Nc1cc([N+](=O)[O-])ccc1O)CC(=O)Nc1cc([N+](=O)[O-])ccc1O [Compound 3] ; field requested: tissue uptake at 1 min
Out: 0.43

In: Query (molecule): CC(C)(C)c1ccc(O)c(NC(=O)CN(CCN(CC(=O)O)CC(=O)Nc2cc(C(C)(C)C)ccc2O)CC(=O)O)c1 [Compound 4] ; field requested: tissue uptake at 1 min
Out: 0.51

In: Query (molecule): O=C(O)CN(CCN(CC(=O)O)CC(=O)Nc1ccccc1O)CC(=O)Nc1ccccc1O [Compound 1] ; field requested: tissue uptake at 1 min
Out: 0.43

In: Query (molecule): O=C(O)CN(CCN(CC(=O)O)CC(=O)Nc1ccc(Cl)cc1O)CC(=O)Nc1ccc(Cl)cc1O [Compound 2] ; field requested: tissue uptake at 1 min
Out: 0.45

----------
Experiment: Biodistribution of 99mTc complexes in rats
Format: in vivo, Australian Albino Wistar Rats
Conditions: rat, muscle, rats, 5 min, read-out: biodistribution muscle
Binary label based on tissue uptake at 5 min with cut-off 0.2 %ID/g: below gives 1, not below gives 0.

In: Confirm or reject: tissue uptake at 5 min of O=C(O)CN(CCN(CC(=O)O)CC(=O)Nc1ccc(Cl)cc1O)CC(=O)Nc1ccc(Cl)cc1O lies strictly below 0.2 %ID/g
Out: 1

In: Confirm or reject: tissue uptake at 5 min of Nc1ccc(O)c(NC(=O)CN(CCN(CC(=O)O)CC(=O)Nc2cc(N)ccc2O)CC(=O)O)c1 lies strictly below 0.2 %ID/g
Out: 0

In: Confirm or reject: tissue uptake at 5 min of O=C(O)CN(CCN(CC(=O)O)CC(=O)Nc1ccccc1O)CC(=O)Nc1ccccc1O lies strictly below 0.2 %ID/g
Out: 0

In: Confirm or reject: tissue uptake at 5 min of O=C(O)CN(CCN(CC(=O)O)CC(=O)Nc1cc([N+](=O)[O-])ccc1O)CC(=O)Nc1cc([N+](=O)[O-])ccc1O lies strictly below 0.2 %ID/g
Out: 0

In: Confirm or reject: tissue uptake at 5 min of CC(C)(C)c1ccc(O)c(NC(=O)CN(CCN(CC(=O)O)CC(=O)Nc2cc(C(C)(C)C)ccc2O)CC(=O)O)c1 lies strictly below 0.2 %ID/g
Out: 1

----------
Assay: Biodistribution of 99mTc complexes in rats
Assay type: in vivo, Australian Albino Wistar Rats
Conditions: rat, thyroid, rats, 10 min, read-out: biodistribution thyroid
Reported property: tissue uptake at 10 min (%ID/g)
Reply with just the number (in %ID/g).

In: Query (molecule): O=C(O)CN(CCN(CC(=O)O)CC(=O)Nc1ccc(Cl)cc1O)CC(=O)Nc1ccc(Cl)cc1O [Compound 2] ; field requested: tissue uptake at 10 min
Out: 0.44

In: Query (molecule): O=C(O)CN(CCN(CC(=O)O)CC(=O)Nc1ccccc1O)CC(=O)Nc1ccccc1O [Compound 1] ; field requested: tissue uptake at 10 min
Out: 0.4

In: Query (molecule): O=C(O)CN(CCN(CC(=O)O)CC(=O)Nc1cc([N+](=O)[O-])ccc1O)CC(=O)Nc1cc([N+](=O)[O-])ccc1O [Compound 3] ; field requested: tissue uptake at 10 min
Out: 0.63

In: Query (molecule): Nc1ccc(O)c(NC(=O)CN(CCN(CC(=O)O)CC(=O)Nc2cc(N)ccc2O)CC(=O)O)c1 [Compound 5] ; field requested: tissue uptake at 10 min
Out: 1.71

In: Query (molecule): CC(C)(C)c1ccc(O)c(NC(=O)CN(CCN(CC(=O)O)CC(=O)Nc2cc(C(C)(C)C)ccc2O)CC(=O)O)c1 [Compound 4] ; field requested: tissue uptake at 10 min
Out: 0.79
